Reference for the values: PubChem BioAssay (NCATS)

- Test system: HeLa
- Assay text: Primary qHTS to identify gynecologic anti-cancer compounds using libraries of approved drugs and bioactive compounds (AID 1345084); further: nearly all actives have a fitted effect of over 55% in size
- Settings: Gynecologic cancer cell panel viability, ATPlite luminescence, 48 h; series mostly up to 57.5 µM
Records with an inconclusive call do not appear. The source made the active and inactive calls. The call rests on the fitted dose curve; in most records, active means well fitted cell-killing curve with a large enough effect; inconclusive means small, poorly fitted or top-dose-only effect, or effect the other way; inactive means flat fitted curve, though single readings scatter.
Outcome measure: outcome

{"Substance smiles": "CNC(=O)[C@@H](c1ccccc1)N1CCc2cc(OC)c(OC)cc2[C@@H]1CCc1ccc(C(F)(F)F)cc1", "Outcome measure": "outcome", "Result": "inactive"}
{"Substance smiles": "COc1cc2c(c(OC)c1CC=C(C)C)C[C@H](c1ccc(O)c(CC=C(C)C)c1O)CO2", "Outcome measure": "outcome", "Result": "inactive"}
{"Substance smiles": "O=C(N[C@H](Cc1cscn1)C(=O)N[C@@H](CC1CCCCC1)[C@@H](O)[C@@H](O)C1CC1)c1nc2ccccc2[nH]1", "Outcome measure": "outcome", "Result": "inactive"}
{"Substance smiles": "CCCCCCOC(=O)/N=C(\\N)c1ccc(NCc2nc3cc(C(=O)N(CCC(=O)OCC)c4ccccn4)ccc3n2C)cc1", "Outcome measure": "outcome", "Result": "inactive"}

====

// values below are reported activity change, negative = cytotoxicity
- Tested on: C33A
- Assay text: Primary qHTS to identify gynecologic anti-cancer compounds using libraries of approved drugs and bioactive compounds (AID 1345084); further: nearly all actives have a fitted effect of over 55% in size; on activity change, negative = cytotoxicity: on the % scale 0 is the no-effect control and ±100 the full control effect
- Settings: Gynecologic cancer cell panel viability, ATPlite luminescence, 48 h; series mostly up to 57.5 µM
Records with an inconclusive call do not appear. Calls of active or inactive are those of the source. Calls follow the shape of the dose curve; as a rule, active = well fitted cell-killing curve with a large enough effect; inconclusive = small, poorly fitted or top-dose-only effect, or effect the other way; inactive = flat fitted curve, though single readings scatter. Where a SMILES comes first, the peptide text is derived from it. [ ]: non-standard residue; d: D form. Hyp = O=C(O)[CH]1C[CH](O)CN1; Phe(ol) = N[CH](CO)Cc1ccccc1; Iva = CC[C](C)(N)C(=O)O; Aib = CC(C)(N)C(=O)O
Outcome measure: activity change, negative = cytotoxicity

{"Compound": "C[C@@H]1O[C@@H](O[C@H]2CC[C@@]3(C)C(CC[C@]4(C)C3CC=C3[C@@H]5CC(C)(C)CC[C@]5(C(=O)O[C@@H]5O[C@H](CO)[C@@H](O)[C@H](O)[C@H]5O)CC[C@]34C)[C@]2(C)CO)[C@H](O)[C@H](O[C@@H]2O[C@H](CO)[C@@H](O)[C@H](O)[C@H]2O)[C@H]1O (stereo partly specified)", "Outcome measure": "activity change, negative = cytotoxicity", "Result": "-20.9% [at 11.6 µM] (inactive)"}
{"Compound": "C[C@H]1CC[C@@]2(OC1)O[C@H]1CC3[C@@H]4CC[C@@H]5C[C@@H](O[C@@H]6O[C@H](CO)[C@@H](O[C@@H]7O[C@@H](C)[C@H](O)[C@@H](O)[C@H]7O)[C@H](O)[C@H]6O[C@@H]6O[C@H](CO)[C@@H](O)[C@H](O)[C@H]6O)CC[C@]5(C)C4CC[C@]3(C)[C@H]1[C@@H]2C (stereo partly specified)", "Outcome measure": "activity change, negative = cytotoxicity", "Result": "-15.7% [at 11.6 µM] (inactive)"}
{"Compound": "CC(CCC1(O)OC2CC3C4CC=C5C[C@@H](O[C@@H]6O[C@H](CO)[C@@H](O[C@@H]7O[C@@H](C)[C@H](O)[C@@H](O)[C@H]7O)[C@H](O)[C@H]6O[C@@H]6O[C@@H](C)[C@H](O)[C@@H](O)[C@H]6O)CC[C@]5(C)C4CC[C@]3(C)[C@@]2(O)[C@@H]1C)CO[C@@H]1O[C@H](CO)[C@@H](O)[C@H](O)[C@H]1O (stereo partly specified)", "Outcome measure": "activity change, negative = cytotoxicity", "Result": "-5.46% [at 11.6 µM] (inactive)"}
{"Compound": "CC(=O)O[C@@H]1C[C@]2(C)[C@@]3(CCC4[C@@]5(C)CC[C@H](O[C@@H]6O[C@H](C(=O)O)[C@@H](O)[C@H](OC7OC(CO)C(O)C(O)[C@H]7O[C@@H]7O[C@@H](C)[C@H](O)[C@@H](O)[C@H]7O[C@@H]7OC[C@](O)(CO)[C@H]7O)[C@H]6OC6OC(CO)C(O)C(O)C6O)C(C)(C)C5CC[C@]42C)OC[C@@]12CCC(C)(C)CC23 (stereo partly specified)", "Outcome measure": "activity change, negative = cytotoxicity", "Result": "2.65% [at 6.55 µM] (inactive)"}
{"Compound": "CCC(C)(NC(=O)C(CCC(N)=O)NC(=O)C1CC(O)CN1C(=O)C(C)(C)NC(=O)C(C)(C)NC(=O)C(CC(C)C)NC(=O)CNC(=O)C(NC(=O)C(C)(C)NC(=O)C(C)(C)NC(=O)C(C)(C)NC(=O)C(Cc1ccccc1)NC(C)=O)C(C)C)C(=O)N1CC(O)CC1C(=O)NC(C)(C)C(=O)NC(CO)Cc1ccccc1 (stereo unspecified) (Ac-F[Aib][Aib][Aib]VGL[Aib][Aib][Hyp]Q[Iva][Hyp][Aib][Phe(ol)]; configuration not given here)", "Outcome measure": "activity change, negative = cytotoxicity", "Result": "-28.9% [at 6.55 µM] (inactive)"}
{"Compound": "CC(=O)N[C@H]1[C@H](O[C@H]2CC[C@@]3(C)C(CC[C@]4(C)C3CC=C3C5CC(C)(C)CC[C@]5(C(=O)O)C(O)C[C@]34C)C2(C)C)O[C@H](CO[C@@H]2O[C@H](C)[C@H](O)[C@H](O)[C@H]2O[C@@H]2OC[C@@H](O)[C@H](O)[C@H]2O)[C@@H](O)[C@@H]1O (stereo partly specified)", "Outcome measure": "activity change, negative = cytotoxicity", "Result": "3.31% [at 11.6 µM] (inactive)"}

====

- System: Es-2
- Assay text: Primary qHTS to identify gynecologic anti-cancer compounds using libraries of approved drugs and bioactive compounds (AID 1345084); further: nearly all actives have a fitted effect of over 55% in size
- Settings: Gynecologic cancer cell panel viability, ATPlite luminescence, 48 h; series mostly up to 57.5 µM
Inconclusive results are not listed. Calls of active or inactive are those of the source. Calls follow the shape of the dose curve; as a rule, active = well fitted cell-killing curve with a large enough effect; inconclusive = small, poorly fitted or top-dose-only effect, or effect the other way; inactive = flat fitted curve, though single readings scatter.
Classes used: t (active), f (inactive)

{"Compound": "CN1CCN(c2ccc(-c3cccc(CN4CCOCC4)c3)cc2NC(=O)c2c[nH]c(=O)cc2C(F)(F)F)CC1", "Measured on": "Es-2", "Assigned category": "f"}
{"Compound": "CC1(C)Oc2ncnc(N)c2N=C1c1ccc(C23CCC(CC(=O)O)(CC2)CC3)cc1", "Measured on": "Es-2", "Assigned category": "f"}
{"Compound": "Nc1cccc(CNC(=O)c2ccc(Oc3ccc(OCc4cccc(F)c4)cc3)nc2)c1", "Measured on": "Es-2", "Assigned category": "f"}
{"Compound": "C=C1CC2OC(=O)C(=C)C2C(OC(=O)/C(C)=C\\C)CC2(C)OC1=CC2=O (centres undefined)", "Measured on": "Es-2", "Assigned category": "t"}
{"Compound": "O=C(CSc1nc2ccccc2c(=O)n1-c1ccccc1)Nc1ccc2c(c1)CCC2", "Measured on": "Es-2", "Assigned category": "f"}
{"Compound": "COc1ccc(CNc2nc(N(CCO)CCO)nc3c2ncn3C(C)C)cc1", "Measured on": "Es-2", "Assigned category": "t"}
{"Compound": "CC[C@H](C)/C=C(C)/C=C/C1=CC2=CC(=O)[C@]3(C)OC(=O)[C@@H](C(C)=O)[C@@H]3C2=CO1", "Measured on": "Es-2", "Assigned category": "f"}
{"Compound": "CCN(Cc1cc(Nc2nc(C)cn3c(-c4cn[nH]c4)cnc23)sn1)C(C)(C)CO", "Measured on": "Es-2", "Assigned category": "t"}
{"Compound": "C=C1C(=O)OC2/C=C(\\CO)CC/C=C(\\C=O)C(OC)C(OC(=O)C(C)CC)C12 (centres undefined)", "Measured on": "Es-2", "Assigned category": "f"}
{"Compound": "CN(C)CCOC(C)(c1ccccc1)c1ccc(Cl)cc1 (centres undefined)", "Measured on": "Es-2", "Assigned category": "f"}
{"Compound": "C=C1CC[C@@H]2[C@](C)(CO)[C@H](O)CC[C@@]2(C)[C@@H]1CC(O)C1=CCOC1=O (some centres undefined)", "Measured on": "Es-2", "Assigned category": "f"}
{"Compound": "CC(=O)OC[C@]12[C@H](OC(C)=O)[C@H](OC(=O)c3ccccc3)[C@@H]3[C@@H](OC(C)=O)[C@]1(OC3(C)C)[C@H](C)C[C@H](OC(C)=O)[C@@H]2OC(=O)c1ccccc1", "Measured on": "Es-2", "Assigned category": "f"}
{"Compound": "CCCC1(CCC)CCC2(CCN(CCCN(CC)CC)C2)CC1", "Measured on": "Es-2", "Assigned category": "t"}
{"Compound": "C/C=C/C=C/c1cc2c(C=O)c(O)c(CC=C(C)C)cc2o1", "Measured on": "Es-2", "Assigned category": "f"}
{"Compound": "CC(C)n1nc(C#Cc2ccccc2)c2c(N)ncnc21", "Measured on": "Es-2", "Assigned category": "f"}
{"Compound": "Cn1ncc2cc(-c3cnc(N)c(Cl)c3N3CCC4(CCNC4=O)CC3)ccc21", "Measured on": "Es-2", "Assigned category": "f"}
{"Compound": "C=C(C)Cn1c(SCC(=O)c2cccs2)nc2sc3c(c2c1=O)CCCC3", "Measured on": "Es-2", "Assigned category": "f"}
{"Compound": "C1=Cc2ccccc2C(=C2CCN(CCCCc3nn[nH]n3)CC2)c2ccccc21", "Measured on": "Es-2", "Assigned category": "f"}
{"Compound": "O=C(Nc1ccccc1C(=O)Nc1ccc(CCO)cc1)c1ccc([N+](=O)[O-])cc1", "Measured on": "Es-2", "Assigned category": "f"}
